Species: Homo sapiens
measurement-notes: Selectivity ratio of EC50 for human CB1 receptor to EC50 for human CB2 receptor
Kindly state Ratio EC50 for each of the entries shown.

compound=Clc1cccc(Nc2ccc(CN3CCO[C@@H](c4ccccc4)C3)cn2)c1Cl value="> 10"
compound=Cc1ccc(Nc2ccc(CN3CCO[C@@H](c4ccccc4)C3)cn2)cc1 value="> 200"
compound=Clc1ccccc1-c1ccc(CN2CCO[C@@H](c3ccccc3)C2)cc1 value=306

I would be grateful if you could provide Ratio EC50 for each of the following entries.
1. N#Cc1ccccc1-c1ccc(CN2CCO[C@@H](c3ccccc3)C2)cc1
2. FC(F)(F)c1ccccc1-c1ccc(CN2CCO[C@@H](c3ccccc3)C2)cc1
3. c1ccc(Nc2ccc(CN3CCO[C@@H](c4ccccc4)C3)cc2)cc1

1. 715
2. 250
3. > 30

###

Kindly state EC50 for each of the entries shown.
experimental-system: Cannabinoid receptor 2 (Homo sapiens)
measurement-notes: Agonist activity at human CB2 receptor expressed in CHO cells assessed as inhibition of forskolin-induced cAMP release

// below: answered compounds
compound=Clc1ccc(Nc2ccc(CN3CCO[C@@H](c4ccccc4)C3)cn2)cc1Cl value="50 nM"
compound=Cc1ccc(Nc2ccc(CN3CCO[C@@H](c4ccccc4)C3)cn2)cc1 value="100 nM"
compound="FC(F)(F)c1ccccc1-c1ccc(CN2CCOC(c3ccccc3)C2)cc1 (racemic)" value="330 nM"
compound=c1ccc(-c2ccc(Nc3ccc(CN4CCO[C@@H](c5ccccc5)C4)cn3)cc2)cc1 value="> 20000 nM"
compound=Clc1cccc(-c2ccc(CN3CCO[C@@H](c4ccccc4)C3)cc2)c1Cl value="6 nM"
compound=Clc1cccc(Nc2ccc(CN3CCO[C@@H](c4ccccc4)C3)cn2)c1 value="200 nM"

I would be grateful if you could provide EC50 for each of the following entries.
1. c1ccc(Nc2ccc(CN3CCO[C@@H](c4ccccc4)C3)cn2)cc1
2. Cc1ccc(Cl)c(-c2ccc(CN3CCO[C@@H](c4ccccc4)C3)cc2)c1
3. c1ccc(Oc2ccc(CN3CCO[C@@H](c4ccccc4)C3)cc2)cc1
4. Clc1ccc(Nc2ccc(CN3CCO[C@@H](c4ccccc4)C3)cn2)cc1

1. 140 nM
2. 3 nM
3. 15000 nM
4. 30 nM

###

experimental-system: Cannabinoid receptor 2 (Homo sapiens, UniProt P34972)
Sequence (P34972 whole entry): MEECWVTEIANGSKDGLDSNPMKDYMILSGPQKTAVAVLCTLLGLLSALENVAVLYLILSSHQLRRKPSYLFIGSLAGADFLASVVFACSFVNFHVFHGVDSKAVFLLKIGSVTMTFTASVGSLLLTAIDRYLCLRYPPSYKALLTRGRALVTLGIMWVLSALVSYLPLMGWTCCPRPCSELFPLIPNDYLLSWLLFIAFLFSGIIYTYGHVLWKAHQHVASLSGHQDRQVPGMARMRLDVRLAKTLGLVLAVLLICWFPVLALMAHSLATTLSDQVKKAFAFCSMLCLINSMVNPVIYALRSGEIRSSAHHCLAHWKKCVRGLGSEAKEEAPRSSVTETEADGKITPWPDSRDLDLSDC
measurement-notes: Agonist activity at human CB2 receptor expressed in CHO cells assessed as inhibition of forskolin-induced cAMP release
Field 'label' (enum: Yes / No). Set to Yes when EC50 is strictly under 30 nM; else No.

compound=N#Cc1ccccc1-c1ccc(CN2CCO[C@@H](c3ccccc3)C2)cc1 experimental_system="Cannabinoid receptor 2 (Homo sapiens, UniProt P34972)" label_value=Yes
compound=Clc1ccc(Nc2ccc(CN3CCO[C@@H](c4ccccc4)C3)cn2)c(Cl)c1 experimental_system="Cannabinoid receptor 2 (Homo sapiens, UniProt P34972)" label_value=Yes
compound="O=C(NCC1CCOCC1)c1cnc(Nc2ccc(Cl)cc2Cl)nc1C(F)(F)F [GW842166X]" experimental_system="Cannabinoid receptor 2 (Homo sapiens, UniProt P34972)" label_value=No

Identify whether the compound CN(Cc1ccc(-c2ccccc2C(F)(F)F)cc1)CC(O)c1ccccc1 (racemic) records EC50 below 30 nM.
Yes

Entry to check: Clc1ccccc1-c1ccc(CN2CCO[C@@H](c3ccccc3)C2)cc1
Yes

Entry to check: c1ccc(Nc2ccc(CN3CCO[C@@H](c4ccccc4)C3)cc2)cc1
No

Entry to check: COc1ccc(Nc2ccc(CN3CCO[C@@H](c4ccccc4)C3)cn2)cc1
No

Entry to check: Clc1cccc(Nc2ccc(CN3CCO[C@@H](c4ccccc4)C3)cn2)c1Cl
No

Entry to check: CC(C)c1ccc(Nc2ccc(CN3CCO[C@@H](c4ccccc4)C3)cn2)cc1
No

###

Organism: Homo sapiens
measurement-notes: Selectivity ratio of EC50 for human CB1 receptor to EC50 for human CB2 receptor
recorded-endpoint: Ratio EC50

// below: answered molecules
molecule="FC(F)(F)c1ccccc1-c1ccc(CN2CCOC(c3ccccc3)C2)cc1 (racemic)" recorded_endpoint="Ratio EC50" value="> 60"
molecule=Clc1ccccc1Nc1ccc(CN2CCO[C@@H](c3ccccc3)C2)cn1 recorded_endpoint="Ratio EC50" value=250
molecule=Cc1ccc(Cl)c(-c2ccc(CN3CCO[C@@H](c4ccccc4)C3)cc2)c1 recorded_endpoint="Ratio EC50" value=781
molecule=Clc1cccc(-c2ccc(CN3CCO[C@@H](c4ccccc4)C3)cc2)c1Cl recorded_endpoint="Ratio EC50" value=960
molecule=Clc1ccc(Nc2ccc(CN3CCO[C@@H](c4ccccc4)C3)cn2)c(Cl)c1 recorded_endpoint="Ratio EC50" value="> 2000"

I would be grateful if you could provide Ratio EC50 for each of the following entries.
1. Clc1cccc(Nc2ccc(CN3CCO[C@@H](c4ccccc4)C3)cn2)c1
2. O=C(NCC1CCOCC1)c1cnc(Nc2ccc(Cl)cc2Cl)nc1C(F)(F)F [GW842166X]
3. Clc1ccc(Nc2ccc(CN3CCO[C@@H](c4ccccc4)C3)cn2)cc1
4. c1ccc(Nc2ccc(CN3CCO[C@@H](c4ccccc4)C3)cn2)cc1
5. FC(F)(F)c1ccccc1-c1ccc(CN2CCCC(c3ccccc3)C2)cc1 (racemic)
6. Clc1ccc(Nc2ccc(CN3CCO[C@@H](c4ccccc4)C3)cn2)cc1Cl
7. CN(Cc1ccc(-c2ccccc2C(F)(F)F)cc1)CC(O)c1ccccc1 (racemic)
8. COc1ccc(Nc2ccc(CN3CCO[C@@H](c4ccccc4)C3)cn2)cc1

> 100
> 60
> 670
> 150
195
> 400
120
> 310

###

experimental-system: Cannabinoid receptor 2 (Homo sapiens, UniProt P34972)
measurement-notes: Agonist activity at human CB2 receptor expressed in CHO cells assessed as inhibition of forskolin-induced cAMP release
recorded-endpoint: EC50 (nM)
Numbers only, in nM.

item_smiles=Fc1ccc(Nc2ccc(CN3CCO[C@@H](c4ccccc4)C3)cn2)cc1 unit_name=nM value=35
item_smiles=FC(F)(F)c1ccccc1-c1ccc(CN2CCO[C@@H](c3ccccc3)C2)cc1 unit_name=nM value=40

Alright, here's another compound for you.
Look up EC50 for this compound: Clc1ccccc1Nc1ccc(CN2CCO[C@@H](c3ccccc3)C2)cn1
30
